Hey, just so you know, these numbers are from paper PMC12207250.

Test system: P. falciparum 3D7 (chloroquine-sensitive strain)
Experiment Summary: In vitro antiplasmodial image-based assay
Assay type: cell-based, Plasmodium falciparum
Study Conditions: HEK293 versus Pf 3D7
Quantity: Selectivity index (fold difference) IC50(HEK293)/IC50(Pf 3D7)

Please review the following examples before continuing.
CCN(CC)CCNc1nccn2c(-c3ccc(Cl)cc3)nnc12 [Compound 11] : >4
CN(C)CCCNc1nccn2c(-c3ccc(Cl)cc3)nnc12 [Compound 12] : >4
Clc1ccc(-c2nnc3cncc(Cl)n23)cc1 [Compound 1] : >6

IN: Name the reported Selectivity index (fold difference) IC50(HEK293)/IC50(Pf 3D7) value associated with the compound CN(C)CCNc1nccn2c(-c3ccc(Cl)cc3)nnc12 [Compound 10]
OUT: >3

IN: Entry to check: COc1ccc(C[C@H](N)C(=O)N[C@H]2[C@@H](O)[C@H](n3cnc4c(N(C)C)ncnc43)O[C@@H]2CO)cc1 [PMY, puromycin, reference compound]
OUT: 13
